# System Name: Human BCL-XL protein (N-terminal HiBiT tagged BCL-XL in HT1080 cells) (Homo sapiens, UniProt Q07817)
# Construct: expressed in transfected cells; host or cells: HT-1080 (ATCC CCL-121), stably transduced with lentivirus pLV-UBC-N-HiBiT-BCL-XL-PGK-puro and selected with puromycin
# Sequence (Q07817 whole entry): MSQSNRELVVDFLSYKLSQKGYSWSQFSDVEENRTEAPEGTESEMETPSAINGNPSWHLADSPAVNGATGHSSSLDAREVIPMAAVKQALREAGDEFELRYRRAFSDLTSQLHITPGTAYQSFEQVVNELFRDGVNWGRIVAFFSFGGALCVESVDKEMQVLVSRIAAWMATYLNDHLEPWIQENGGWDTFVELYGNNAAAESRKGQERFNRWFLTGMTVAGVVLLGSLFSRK
# Assay Method Text: HiBiT based degradation assay
# Type: cell-based
# Measurement Context: HT1080 cells expressing N-terminal HiBiT tagged BCL-XL, 24 h, normalized with DMSO control
# Procedure: HiBiT Based Degradation Assay Human BCL-XL protein coding open reading frame fused with N-terminal HiBiT coding sequence was synthesized from Integrated DNA Technologies (IDT). […] HT1080 cells expressing N-terminal HiBiT tagged BCL-XL were dispensed into a 384-well plate pre-spotted with compounds at varying concentrations. […] After incubation, luminescence was read on a PHERAstar FSX Plate Reader (BMG). […]
Reported Metric: Ymin (24 h)

# Molecule, Reported Metric, Obs Value
data = [
    ("Cc1ncsc1-c1ccc([C@H](C)NC(=O)[C@@H]2C[C@@H](O)CN2C(=O)[C@@H](NC(=O)CC[C@@H](C)c2ccc(Oc3cccc(-c4ccc(N5CCc6cccc(C(=O)Nc7nc8ccccc8s7)c6C5)nc4C(=O)O)c3C)cc2)C(C)(C)C)cc1 (single isomer, unassigned) [Compound 129b]", "Ymin (24 h)", "A (Ymin < 50%)"),
    ("Cc1ncsc1-c1ccc([C@H](C)NC(=O)[C@@H]2C[C@@H](O)CN2C(=O)[C@@H](NC(=O)CCc2ccc(COc3cccc(-c4ccc(N5CCc6cccc(C(=O)Nc7nc8ccccc8s7)c6C5)nc4C(=O)O)c3C)cc2)C(C)(C)C)cc1 [Compound 114a]", "Ymin (24 h)", "A (Ymin < 50%)"),
    ("Cc1ncsc1-c1ccc([C@H](C)NC(=O)[C@@H]2C[C@@H](O)CN2C(=O)[C@@H](NC(=O)[C@@H](C)CCc2ccc(Oc3cccc(-c4ccc(N5CCc6cccc(C(=O)Nc7nc8ccccc8s7)c6C5)nc4C(=O)O)c3C)cc2)C(C)(C)C)cc1 (single isomer, unassigned) [Compound 143b]", "Ymin (24 h)", "A (Ymin < 50%)"),
]

----------
# System Name: Human BCL-XL protein (N-terminal HiBiT tagged BCL-XL in HT1080 cells) (Homo sapiens)
# Construct: expressed in transfected cells; host or cells: HT-1080 (ATCC CCL-121), stably transduced with lentivirus pLV-UBC-N-HiBiT-BCL-XL-PGK-puro and selected with puromycin
# Assay Method Text: HiBiT based degradation assay
# Assay type: cell-based
# Measurement Context: HT1080 cells expressing N-terminal HiBiT tagged BCL-XL, 24 h, normalized with DMSO control
Reported Metric: Ymin (24 h)

# example entries with known answers
# Molecule, Ymin (24 h)
rows = [
    ("CC(=O)O[C@@H]1C[C@@H](C(=O)N[C@@H](C)c2ccc(-c3scnc3C)cc2)N(C(=O)[C@@H](NC(=O)C[C@H]2CC[C@H](Oc3cccc(-c4ccc(N5CCc6cccc(C(=O)Nc7nc8ccccc8s7)c6C5)nc4C(=O)O)c3C)CC2)C(C)(C)C)C1 [Compound 119a]", "B (50% ≤ Ymin < 70%)"),
    ("Cc1ncsc1-c1ccc(CNC(=O)[C@@H]2C[C@@H](O)CN2C(=O)[C@@H](NC(=O)C2(F)CC2)C(C)(C)SCCCCCCCCOc2cccc(-c3ccc(N4CCc5cccc(C(=O)Nc6nc7ccccc7s6)c5C4)nc3C(=O)O)c2C)cc1 [Compound 136a]", "A (Ymin < 50%)"),
    ("Cc1ncsc1-c1ccc(CNC(=O)[C@@H]2C[C@@H](O)CN2C(=O)[C@@H](NC(=O)C2(F)CC2)C(C)(C)SCCCCCCCCCCOc2cccc(-c3ccc(N4CCc5cccc(C(=O)Nc6nc7ccccc7s6)c5C4)nc3C(=O)O)c2C)cc1 [Compound 137a]", "B (50% ≤ Ymin < 70%)"),
    ("Cc1ncsc1-c1ccc([C@H](C)NC(=O)[C@@H]2C[C@@H](O)CN2C(=O)[C@@H](NC(=O)C[C@@H](C)Cc2ccc(Oc3cccc(-c4ccc(N5CCc6cccc(C(=O)Nc7nc8ccccc8s7)c6C5)nc4C(=O)O)c3C)cc2)C(C)(C)C)cc1 (relative stereo) [Compound 134a]", "A (Ymin < 50%)"),
    ("Cc1ncsc1-c1ccc([C@H](C)NC(=O)[C@@H]2C[C@@H](O)CN2C(=O)[C@@H](n2cc(CCc3ccc(Oc4cccc(-c5ccc(N6CCc7cccc(C(=O)Nc8nc9ccccc9s8)c7C6)nc5C(=O)O)c4C)cc3)nn2)C(C)(C)C)cc1 [Compound 132a]", "B (50% ≤ Ymin < 70%)"),
    ("Cc1ncsc1-c1ccc([C@H](C)NC(=O)[C@@H]2C[C@@H](O)CN2C(=O)[C@@H](NC(=O)CN2CCC(CCOc3cccc(-c4ccc(N5CCc6cccc(C(=O)Nc7nc8ccccc8s7)c6C5)nc4C(=O)O)c3C)CC2)C(C)(C)C)cc1 [Compound 123a]", "A (Ymin < 50%)"),
]

Ask: # return recorded Ymin (24 h) for entry Cc1ncsc1-c1ccc([C@@H](NC(=O)[C@@H]2C[C@@H](O)CN2C(=O)[C@@H](NC(=O)C[C@H]2CC[C@H](Oc3cccc(-c4ccc(N5CCc6cccc(C(=O)Nc7nc8ccccc8s7)c6C5)nc4C(=O)O)c3C)CC2)C(C)(C)C)C(F)(F)F)cc1 [Compound 125a]
Reply: A (Ymin < 50%)

Ask: # return recorded Ymin (24 h) for entry Cc1ncsc1-c1ccc([C@H](C)NC(=O)[C@@H]2C[C@@H](O)CN2C(=O)[C@@H](NC(=O)CCCCCOc2cccc(-c3ccc(N4CCc5cccc(C(=O)Nc6nc7ccccc7s6)c5C4)nc3C(=O)O)c2C)C(C)(C)C)cc1 [Compound 105a]
Reply: A (Ymin < 50%)
